system: Botrytis cinerea Pers.; assay: Antifungal activity assay, mycelial growth inhibitory rate method; format: cell-based; conditions: 100 μg/mL in PDA medium, 28° C., 48-72 h, read-out: Average values of antifungal rate (%) B.c.
// inhibition of growth at 100 µg/mL lookup, one value per entry
Value and unit, in that order.

Solved entries (count: 5):
- compound: "COC1=CC(=O)C[C@@H](C)[C@]12Oc1c(Cl)c(OC)cc(OCc3ccccc3F)c1C2=O"
  assay-value: "55.6%"
- compound: "C#CCOc1cc(OC)c(Cl)c2c1C(=O)[C@@]1(O2)C(OC)=CC(=O)C[C@H]1C"
  assay-value: "98.6%"
- compound: "COC1=CC(=O)C[C@@H](C)[C@]12Oc1c(Cl)c(OC)cc(OCC3CC3)c1C2=O"
  assay-value: "50.7%"
- compound: "COC1=CC(=O)C[C@@H](C)[C@]12Oc1c(Cl)c(OC)cc(OCc3ccsc3)c1C2=O"
  assay-value: "59.7%"
- compound: "COCOc1cc(OC)c(Cl)c2c1C(=O)[C@@]1(O2)C(OC)=CC(=O)C[C@H]1C"
  assay-value: "66%"

Q) Tell me the measured inhibition of growth at 100 µg/mL of `COC1=CC(=O)C[C@@H](C)[C@]12Oc1c(Cl)c(OC)cc(OCc3ccc(C(C)=O)cc3)c1C2=O` , please.
A) 43.1%

Q) Tell me the measured inhibition of growth at 100 µg/mL of `C=CCOc1cc(OC)c(Cl)c2c1C(=O)[C@@]1(O2)C(OC)=CC(=O)C[C@H]1C` , please.
A) 56.9%

Q) Tell me the measured inhibition of growth at 100 µg/mL of `CCCCOc1cc(OC)c(Cl)c2c1C(=O)[C@@]1(O2)C(OC)=CC(=O)C[C@H]1C` , please.
A) 19.1%

Q) Tell me the measured inhibition of growth at 100 µg/mL of Cc1cc(O)no1 [Hym, Hymexazol, reference compound] , please.
A) 100%

Q) Tell me the measured inhibition of growth at 100 µg/mL of `COC1=CC(=O)C[C@@H](C)[C@]12Oc1c(Cl)c(OC)cc(OC3CCCC3)c1C2=O` , please.
A) 59.7%
